IC90 pNFκB, trun-IL-36b, BaF/3 cynomolgus IL-36R cells: recorded values
- target: cynomolgus IL-36R on BaF/3 cells (cynomolgus)
- experiment_notes: cell-based or functional assay
Reply with just the number (in nM).

{"binder": "Mouse 78C8 (antibody 78C8) (antibody, V domains shown) VH: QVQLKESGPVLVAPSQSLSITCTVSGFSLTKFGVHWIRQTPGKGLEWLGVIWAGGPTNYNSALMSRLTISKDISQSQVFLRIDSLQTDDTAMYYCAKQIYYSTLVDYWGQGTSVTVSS VL: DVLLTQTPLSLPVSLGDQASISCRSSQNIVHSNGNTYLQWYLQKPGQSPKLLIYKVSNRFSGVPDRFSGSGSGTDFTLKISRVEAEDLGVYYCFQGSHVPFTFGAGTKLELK", "unit_label": "nM", "result_value": 2.1}

Kindly consider the entry below.
Data request: IC90 pNFκB, trun-IL-36b, BaF/3 cynomolgus IL-36R cells lookup needed for Mouse 73F6 (antibody 73F6) (antibody, V domains shown) VH: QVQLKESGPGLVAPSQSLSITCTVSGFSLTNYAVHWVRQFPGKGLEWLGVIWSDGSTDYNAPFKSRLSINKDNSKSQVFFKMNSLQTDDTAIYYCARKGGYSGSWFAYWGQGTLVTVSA VL: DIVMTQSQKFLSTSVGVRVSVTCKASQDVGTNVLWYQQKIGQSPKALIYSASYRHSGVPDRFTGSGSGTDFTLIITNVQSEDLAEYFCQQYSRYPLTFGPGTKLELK , thanks.
Data returned: 0.7

Where these numbers come from: patent US20240409648A1
